Values from ChEMBL document CHEMBL2417400

- target_entity: Human immunodeficiency virus type 1 integrase (Human immunodeficiency virus 1)
- Sequence (Q7ZJM1 whole entry): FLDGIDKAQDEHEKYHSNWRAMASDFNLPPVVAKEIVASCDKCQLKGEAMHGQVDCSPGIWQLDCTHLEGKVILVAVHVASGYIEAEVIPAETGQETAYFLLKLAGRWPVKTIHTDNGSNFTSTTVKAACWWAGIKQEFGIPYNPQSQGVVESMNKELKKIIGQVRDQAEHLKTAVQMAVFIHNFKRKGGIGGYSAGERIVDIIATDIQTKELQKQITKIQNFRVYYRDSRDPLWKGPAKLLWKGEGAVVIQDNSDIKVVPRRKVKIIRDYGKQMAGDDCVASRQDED
- test_description: Inhibition of recombinant His6-tagged HIV-1 integrase 3' processing activity
Form field: IC50 (one value per entry).

Check out these entries, answers already filled in.
>>> result("O=C(Nc1ccccn1)c1nc[nH]c1C(=O)O")
"> 20 µM"
>>> result("O=C(Nc1ccccc1)c1nc[nH]c1C(=O)O")
"> 20 µM"
>>> result("O=C(Nc1ccccn1)c1nc[nH]c1C(=O)N1CCNCC1")
"> 20 µM"
>>> result("O=C(Nc1ccccc1O)c1nc[nH]c1C(=O)N1CCC(O)CC1")
"> 20 µM"
>>> result("O=C(NCc1ccc(F)cc1)c1nc[nH]c1C(=O)O")
"> 20 µM"

Now for the molecule whose IC50 we want.
What value of IC50 has been recorded for this entry: O=C(Nc1ccccn1)c1nc[nH]c1C(=O)N1CCOCC1
> 20 µM
